Assay: Oral PK in rats: plasma concentrations of released oxycodone by LC-MS/MS
Conditions: conjugate equivalent to 2 mg/kg freebase oxycodone
Param threshold (50 ng·h/mL) applies to AUC; output 1 when value >= threshold, 0 when value < threshold.

Reported AUC reaches at least 50 ng·h/mL for COc1ccc2c3c1OC1C(OC(=O)C(C)c4cccc(Oc5ccccc5)c4)=CCC4(O)C(C2)N(C)CCC314 (mixture of isomers) ?
0

Likewise for COc1ccc2c3c1O[C@H]1C(OC(=O)/C=C/c4ccccc4)=CC[C@@]4(O)[C@@H](C2)N(C)CC[C@]314 [6-Cinnamate-OC] ?
1

Likewise for COc1ccc2c3c1OC1C(OC(=O)C(C)c4cccc(C(=O)c5ccccc5)c4)=CCC4(O)C(C2)N(C)CCC314 (mixture of isomers) ?
0

Likewise for COc1ccc(C(=O)OC2=CC[C@@]3(O)[C@H]4Cc5ccc(OC)c6c5[C@@]3(CCN4C)[C@H]2O6)cc1 [Conjugate 4-MeO-Bz-OC] ?
1

Likewise for COc1ccc2c3c1O[C@H]1C(OC(=O)c4ccc(O)cc4)=CC[C@@]4(O)[C@@H](C2)N(C)CC[C@]314 [Conjugate 4-OH-Bz-OC] ?
1

Likewise for COc1ccc2c3c1O[C@H]1C(OC(=O)c4cccc(N)c4)=CC[C@@]4(O)[C@@H](C2)N(C)CC[C@]314 [Conjugate 3-ABz-OC] ?
1

Likewise for COc1ccc2c3c1OC1C(OC(=O)C(C)c4ccc(CC(C)C)cc4)=CCC4(O)C(C2)N(C)CCC314 (mixture of isomers) [Conjugate 6-lbu-OC] ?
1

Each recorded value in this set is attributed to patent US10544153B2.
